assayedSystem: MK2 (Homo sapiens, UniProt P49137)
Sequence (P49137 whole entry): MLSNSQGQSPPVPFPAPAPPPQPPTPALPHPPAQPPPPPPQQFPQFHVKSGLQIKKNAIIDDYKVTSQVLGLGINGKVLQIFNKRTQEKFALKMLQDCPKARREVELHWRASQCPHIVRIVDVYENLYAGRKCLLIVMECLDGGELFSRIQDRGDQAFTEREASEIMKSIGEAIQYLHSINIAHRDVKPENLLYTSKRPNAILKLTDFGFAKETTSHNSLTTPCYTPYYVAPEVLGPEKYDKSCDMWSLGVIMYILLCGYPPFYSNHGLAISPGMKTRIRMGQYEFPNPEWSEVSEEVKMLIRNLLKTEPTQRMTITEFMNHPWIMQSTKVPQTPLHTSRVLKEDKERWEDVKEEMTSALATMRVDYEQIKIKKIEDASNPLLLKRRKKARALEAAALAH
testName: MK2 degradation in human SW1353 cells (MSD, 24 h)
Format: cell-based
Set-up: endogenous in cells; host or cells: SW-1353 (ATCC HTB-94)
conditionLabel: read-out: MK2 MSD SW1353 degradation 24 h GMean External Abs DC50
metricName: DC50

molecule | result
O=C1CCN(c2cncc3c(N4CCN(CC5CCN(c6ccc(-c7cc(-c8cc9c([nH]8)C8(CC8)CNC9=O)ccn7)cc6)CC5)CC4)cccc23)C(=O)N1 | 10 to 100 nM

Qu. DC50 lookup needed for C[C@@H]1CNc2c(sc3ccc4nc(-c5cccc(N6CCC(CN7CCC(c8cccc9c8n(C)c(=O)n9C8CCC(=O)NC8=O)CC7)CC6)c5)ccc4c23)C(=O)N1 (stereo partly drawn) , thanks.
Ans. 1 to 10 nM

Qu. Next: Cn1c(=O)n(C2CCC(=O)NC2=O)c2ccc(N3CC(CN4CCN(c5ccc(-c6cc(-c7cc8c([nH]7)CCNC8=O)ccn6)c(F)c5)CC4)C3)cc21 (stereo not drawn)
Ans. < 1 nM

All values here come from patent US20230135894A1.
